Target or system: T1, Cynomolgus GPRC5D (Cynomolgus, UniProt Q9NZD1 1-343 (human entry))
T1 construct: Full length, on stably transfected cells (HEK293-cyGPRC5D, CHO-cyGPRC5D); also called cyGPRC5D
T1 chain: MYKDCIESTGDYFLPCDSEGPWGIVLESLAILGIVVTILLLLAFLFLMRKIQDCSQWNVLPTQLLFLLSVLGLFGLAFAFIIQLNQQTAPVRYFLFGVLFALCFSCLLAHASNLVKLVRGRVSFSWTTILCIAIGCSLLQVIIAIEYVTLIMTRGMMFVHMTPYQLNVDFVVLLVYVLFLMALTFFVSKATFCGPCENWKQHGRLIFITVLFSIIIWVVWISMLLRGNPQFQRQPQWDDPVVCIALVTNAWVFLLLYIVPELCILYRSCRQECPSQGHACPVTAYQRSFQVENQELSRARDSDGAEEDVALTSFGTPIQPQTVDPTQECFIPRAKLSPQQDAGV
Method description: flow cytometry on CHO-cyGPRC5D cells
Measurement name: binding result

>  <Binder>
anti-GPRC5D chimeric antibody 2F1 (antibody, V domains shown) VH: EVLLQQSGPELVKPGTSMKISCKASGYSFTGYTMNWVKQRHGKNLEWIGLINPYNGGTRYNQKFKGRATLTVDKSSSTAYMELLSLTSEDSAVYYCARWALRYGMDYWGQGTSVTVSS VL: DIVMTQSQKFMSTSVGDRVSVTCKASQNVGTNVAWYQQKPGHSPKALIYSASYRNSGVPDRFTGSGSGTDFTLTISNVQSEDLAEYFCQQYNSYLLTFGGGTKLELK

>  <Measurement name>
binding result

>  <Experimental value>
binds

$$$$
>  <Binder>
anti-GPRC5D chimeric antibody 2E1 (antibody, V domains shown) VH: QVQLQQPGAELVKPGASVKLSCKASGYTFTRYWMHWVKQRPGQGLDWIGEFNPSNGRINYNEKFKNKATLTIDKSSSTAYMQLSSLTSEDSAVYYCTRGFAYWGQGTLVTVSA VL: QIVLTQSPAIMSASPGERVTMTCSASSTVSYIHWYQQKSGTSPKRWIYDTSKLASGVPARFSGSGSGTSYSLTISSMEAEDAATYYCQQWTTNPWTFGGGTKLEIK

>  <Measurement name>
binding result

>  <Experimental value>
binds

$$$$
>  <Binder>
anti-GPRC5D chimeric antibody 15D1 (antibody, V domains shown) VH: EVQLQQSGPELGKPGASVKMSCKASGYTFTNYVMHWVKQKPGQGLEWIGYINPYNDGTKYNEKFKGKATLTSDKSSNTAYMELSSLTSEDSAVYYCARGGVRRYFDYWGQGTTLTVSS VL: DIQMTQSPSSLSASLGERVSLTCRASQDIGSNLNWLQQEPDGTIKRLIYATSSLDSGVPKRFSGSRSGSDYSLTISSLESEDFVDYYCLQYASFPYTFGGGTKLEIK

>  <Measurement name>
binding result

>  <Experimental value>
binds

$$$$
>  <Binder>
anti-GPRC5D chimeric antibody 6H1 (antibody, V domains shown) VH: QAYLQQSGAELVRSGASVKMSCKASGYTFTSYNMHWVKQTPGQGLEWIGYIYPGNGGTNYNQKFKGKATLTADTSSSTAYMQISSLTSEDSAVYFCARGYGYRYWYFDVWGTGTTVTVSS VL: QIVLTQSPAIMSASPGEKVTMTCSASSSVSYMHWYQQKSGTSPKRWIYDTSKLASGVPARFSGSGSGTSYSLTISSMEAEDAATYYCQQWNSKPPTFGSGTKLEIK

>  <Measurement name>
binding result

>  <Experimental value>
binds

$$$$
